Tested on: NCI-H522
assay.notes: Growth inhibitory activity against human lung NCI-H522 cell line
Format: functional
property.name: GI50

[
  {
    "chemical.structure": "O=C(NS(=O)(=O)c1ccccc1)c1ccc(Cl)cc1Cl",
    "property.name": "GI50",
    "experimental.value": "18.7 µM"
  },
  {
    "chemical.structure": "COc1ccc(S(=O)(=O)NC(=O)c2ccc(Cl)cc2Cl)cc1",
    "property.name": "GI50",
    "experimental.value": "39.6 µM"
  },
  {
    "chemical.structure": "Cc1cc(Cl)ccc1C(=O)NS(=O)(=O)c1ccc(Cl)cc1",
    "property.name": "GI50",
    "experimental.value": "100 µM"
  },
  {
    "chemical.structure": "O=C(NS(=O)(=O)c1ccc(Cl)cc1)c1ccc(Cl)cc1Cl",
    "property.name": "GI50",
    "experimental.value": "8.6 µM"
  }
]

* * *

System: L1210
assay.notes: Diameter of zone of inhibition for cell colony formation of leukemia L1210 at the dose of 190 ug
Assay type: functional, Mus musculus
// classify: if (Inhibition < 6 mm) yes (1) else no (0)

[
  {
    "chemical.structure": "O=C(NS(=O)(=O)c1ccc(Cl)cc1)c1cccc(Br)c1",
    "category": "no (0)"
  },
  {
    "chemical.structure": "O=C(NS(=O)(=O)c1ccc([N+](=O)[O-])cc1)c1ccc(Cl)cc1Cl",
    "category": "yes (1)"
  },
  {
    "chemical.structure": "O=C(NS(=O)(=O)c1ccc(Cl)cc1)c1ccc([N+](=O)[O-])cc1",
    "category": "no (0)"
  },
  {
    "chemical.structure": "O=C(NS(=O)(=O)c1cccc(-c2ccccc2)c1)c1ccc(Cl)cc1Cl",
    "category": "yes (1)"
  },
  {
    "chemical.structure": "Cc1cc(Br)ccc1C(=O)NS(=O)(=O)c1ccc(Cl)cc1",
    "category": "yes (1)"
  }
]

* * *

Measured GI50, listed per entry for reference.
Test system: SW-620
assay.notes: Growth inhibitory activity against human colon SW620 cell line
Type: functional

[
  {
    "chemical.structure": "O=C(NS(=O)(=O)c1ccccc1)c1ccc(Cl)cc1Cl",
    "display.unit": "µM",
    "GI50": 8.6
  },
  {
    "chemical.structure": "COc1ccc(S(=O)(=O)NC(=O)c2ccc(Cl)cc2Cl)cc1",
    "display.unit": "µM",
    "GI50": 9.5
  },
  {
    "chemical.structure": "Cc1cc(Cl)ccc1C(=O)NS(=O)(=O)c1ccc(Cl)cc1",
    "display.unit": "µM",
    "GI50": 37.9
  },
  {
    "chemical.structure": "O=C(NS(=O)(=O)c1ccc(Cl)cc1)c1ccc(Cl)cc1Cl",
    "display.unit": "µM",
    "GI50": 39.6
  }
]

* * *

System: HCT-116
assay.notes: Diameter of zone of inhibition for cell colony formation of solid tumor HCT116 at the dose of 190 ug
Type: functional, Homo sapiens
Measured Inhibition, listed per entry for reference.

[
  {
    "chemical.structure": "O=C(NS(=O)(=O)c1ccc([N+](=O)[O-])cc1)c1ccc(Cl)cc1Cl",
    "Inhibition [mm]": 17.55
  },
  {
    "chemical.structure": "COc1ccc(S(=O)(=O)NC(=O)c2ccc(Cl)cc2Cl)cc1",
    "Inhibition [mm]": 21.12
  },
  {
    "chemical.structure": "CN(C)c1ccc(C(=O)NS(=O)(=O)c2ccc(Cl)cc2)cc1",
    "Inhibition [mm]": 11.7
  },
  {
    "chemical.structure": "O=C(NS(=O)(=O)c1ccc(Cl)cc1)c1ccc(Cl)cc1",
    "Inhibition [mm]": 10.72
  },
  {
    "chemical.structure": "O=C(NS(=O)(=O)c1ccc(Br)c(Br)c1)c1ccc(Cl)cc1Cl",
    "Inhibition [mm]": 13.84
  },
  {
    "chemical.structure": "Cc1ccc(S(=O)(=O)NC(=O)c2ccc(Cl)cc2Cl)cc1",
    "Inhibition [mm]": 27.3
  },
  {
    "chemical.structure": "O=C(NS(=O)(=O)c1ccc(Cl)cc1)c1cccc(Br)c1",
    "Inhibition [mm]": 10.4
  },
  {
    "chemical.structure": "Cc1ccc(S(=O)(=O)NC(=O)c2ccc(Cl)cc2Cl)cc1Cl",
    "Inhibition [mm]": 18.52
  },
  {
    "chemical.structure": "O=C(NS(=O)(=O)c1cccc(-c2ccccc2)c1)c1ccc(Cl)cc1Cl",
    "Inhibition [mm]": 19.5
  },
  {
    "chemical.structure": "O=C(NS(=O)(=O)c1ccc(Cl)cc1)c1ccc([N+](=O)[O-])cc1",
    "Inhibition [mm]": 8.77
  },
  {
    "chemical.structure": "O=C(NS(=O)(=O)c1cccc(Cl)c1)c1ccc(Cl)cc1Cl",
    "Inhibition [mm]": 16.73
  }
]
